Histamine H2 receptor (Cavia porcellus, UniProt P47747): reported pKi for various compounds.
Sequence (P47747 whole entry): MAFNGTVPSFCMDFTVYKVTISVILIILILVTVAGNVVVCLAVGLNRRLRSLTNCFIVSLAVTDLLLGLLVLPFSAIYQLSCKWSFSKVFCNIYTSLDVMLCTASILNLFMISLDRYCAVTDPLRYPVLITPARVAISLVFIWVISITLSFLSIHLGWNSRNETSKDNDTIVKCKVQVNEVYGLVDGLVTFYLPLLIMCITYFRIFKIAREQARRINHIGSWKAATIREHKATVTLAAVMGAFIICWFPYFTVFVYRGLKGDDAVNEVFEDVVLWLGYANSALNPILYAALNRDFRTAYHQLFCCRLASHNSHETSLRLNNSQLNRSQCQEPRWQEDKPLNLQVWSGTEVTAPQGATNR
pKi: −log10 of the molar value.
readout-kind: pKi

[
  {
    "chemical-structure": "Cc1nc[nH]c1CCN",
    "target-entity": "Histamine H2 receptor (Cavia porcellus, UniProt P47747)",
    "readout-kind": "pKi",
    "comparison-operator": "<",
    "assay-value": 5.00
  },
  {
    "chemical-structure": "CNC(=S)NCCCCc1cnc[nH]1",
    "target-entity": "Histamine H2 receptor (Cavia porcellus, UniProt P47747)",
    "readout-kind": "pKi",
    "comparison-operator": "=",
    "assay-value": 5.52
  },
  {
    "chemical-structure": "Cc1[nH]cnc1CSCCNC(=N)NCCCc1c[nH]cn1",
    "target-entity": "Histamine H2 receptor (Cavia porcellus, UniProt P47747)",
    "readout-kind": "pKi",
    "comparison-operator": "=",
    "assay-value": 7.20
  },
  {
    "chemical-structure": "NC(N)=Nc1nc(CSCCC(N)=NS(N)(=O)=O)cs1",
    "target-entity": "Histamine H2 receptor (Cavia porcellus, UniProt P47747)",
    "readout-kind": "pKi",
    "comparison-operator": "=",
    "assay-value": 7.92
  },
  {
    "chemical-structure": "C/N=C(\\S)NCCSCc1[nH]cnc1C",
    "target-entity": "Histamine H2 receptor (Cavia porcellus, UniProt P47747)",
    "readout-kind": "pKi",
    "comparison-operator": "=",
    "assay-value": 6.29
  },
  {
    "chemical-structure": "CN/C([CH-][N+](=O)[O-])=[NH+]\\CCSCc1ccc(CN(C)C)o1",
    "target-entity": "Histamine H2 receptor (Cavia porcellus, UniProt P47747)",
    "readout-kind": "pKi",
    "comparison-operator": "=",
    "assay-value": 6.41
  }
]
